- TEST: gradient 5% acetonitrile 3 min, to 50% in 2 min, to 85% in 15 min, held 3 min, 100 µL/min
- CONDITION INFO: column: Zorbax Extend-C18 2.1 x 50 mm; eluents: water / acetonitrile, 0.1% formic acid
RECORDED METRIC: RP-LC retention time (s)

- MOLECULE: "Cc1ccc2[nH]cc(CCN3CC(C(=O)N4CCN(c5ccccc5)CC4)CC3=O)c2c1 (stereo not given)"
  MEASURED NUMBER: 839
- MOLECULE: "CCOc1ccc(C(=O)N2CCC3(CC2)c2nccn2-c2ccccc2CN3C)cc1"
  MEASURED NUMBER: 632
- MOLECULE: "Cc1cc2nc(C(=O)NCC(C)C)c(=O)n(C)c2cc1C"
  MEASURED NUMBER: 668
- MOLECULE: "CC(C)S(=O)(=O)N1CCOc2ccc(NC(=O)C3CC3)cc2C1"
  MEASURED NUMBER: 757
- MOLECULE: "CC(C)NC(=O)C1CC(=O)N(C2CCCCC2)C1 (stereo not given)"
  MEASURED NUMBER: 657
- MOLECULE: "Cc1nc(Nc2ccc(Br)cn2)sc1C(=O)N1CCC(C(N)=O)CC1"
  MEASURED NUMBER: 642
- MOLECULE: "Brc1ccc(-c2csc(Cc3nc(-c4ccc5c(c4)OCO5)no3)n2)cc1"
  MEASURED NUMBER: 1300
- MOLECULE: "Cc1cccc(CNC2=NCCNC23CCN(S(=O)(=O)c2ccc4c(c2)CCCC4)CC3)c1"
  MEASURED NUMBER: 854
- MOLECULE: "Cc1ccc(C(=O)Nc2nccnc2C(=O)NCC2CCCO2)cc1 (stereo not given)"
  MEASURED NUMBER: 808
- MOLECULE: "COc1ccccc1-c1nc(SCC(=O)N2CCC(C(N)=O)CC2)n[nH]1"
  MEASURED NUMBER: 614

----------
- TEST: gradient 5% acetonitrile 3 min, to 50% in 2 min, to 85% in 15 min, held 3 min, 100 µL/min
- CONDITION INFO: column: Zorbax Extend-C18 2.1 x 50 mm; eluents: water / acetonitrile, 0.1% formic acid
Each entry below carries its recorded RP-LC retention time.
RECORDED METRIC: RP-LC retention time (s)

- COMPOUND: "CC(C)CN1CCn2cc(S(=O)(=O)Nc3ccc(Cl)cc3F)cc2C1=O"
  MEASURED NUMBER: 858
- COMPOUND: "Cc1ccc(-c2nnc(Cc3nc(-c4ccccc4Cl)no3)o2)cc1C"
  MEASURED NUMBER: 1230
- COMPOUND: "CN(C)S(=O)(=O)c1ccc(C(=O)Nc2cccc([N+](=O)[O-])c2)cc1"
  MEASURED NUMBER: 858
- COMPOUND: "O=S(=O)(NCc1ccccc1F)c1ccccc1-c1nc(-c2cccc(F)c2)no1"
  MEASURED NUMBER: 1170
- COMPOUND: "O=C(CN1CC=C(c2cnn(-c3ccccc3)c2)CC1)NCc1ccccn1"
  MEASURED NUMBER: 594
- COMPOUND: "Cc1ccc(-c2ccc(N3CCCC(C(=O)NCCc4cccs4)C3)nn2)cc1C (centres undefined)"
  MEASURED NUMBER: 808
- COMPOUND: "Cc1nn(-c2ccc(-c3ccccc3)nn2)c(C)c1S(=O)(=O)NCc1ccc2c(c1)OCO2"
  MEASURED NUMBER: 978
- COMPOUND: "O=C(Nc1cccc(-c2noc(C3CCC3)n2)c1)c1cccs1"
  MEASURED NUMBER: 1060
- COMPOUND: "CCN1CCN(CC(=O)NCc2ccccc2)C(=O)C1=O"
  MEASURED NUMBER: 570
- COMPOUND: "O=C1CC(c2cc(Br)ccc2F)c2scc(S(=O)(=O)c3ccccc3)c2N1 (centres undefined)"
  MEASURED NUMBER: 1010
- COMPOUND: "O=C(CN1C(=O)CCSc2ccccc21)Nc1ccc2c(c1)OCO2"
  MEASURED NUMBER: 627
- COMPOUND: "O=C(CSc1nnc2c3cc(-c4ccccc4)nn3ccn12)NCc1ccccc1Cl"
  MEASURED NUMBER: 800
- COMPOUND: "CCN(CC)C(=O)c1ccc2c(c1)N(CC(=O)N1CCOCC1)C(=O)CS2"
  MEASURED NUMBER: 642
- COMPOUND: "CCOC(=O)c1c(S(=O)(=O)N2CCC(C(=O)Nc3nccs3)CC2)c(C)n(C)c1C"
  MEASURED NUMBER: 740
- COMPOUND: "O=C(Nc1ccc2ncnc(N3CCCCC3)c2c1)c1cncc(Br)c1"
  MEASURED NUMBER: 665
- COMPOUND: "COCCNC(=O)C1CCN(C2=NS(=O)(=O)C(c3ccc(Cl)cc3)=C2C)CC1"
  MEASURED NUMBER: 725
- COMPOUND: "O=C(Cc1nc(-c2ccccn2)n[nH]1)Nc1cccc(Cl)c1"
  MEASURED NUMBER: 673
- COMPOUND: "O=C(c1ccc(-c2cncnc2)nc1)N1CCN(c2ccccc2F)CC1"
  MEASURED NUMBER: 760
- COMPOUND: "Cc1ccc(-n2cc(C3=CCN(CC(=O)NCc4cccs4)CC3)cn2)cc1C"
  MEASURED NUMBER: 735
